Listed here are molecules together with their documented pIC50.
- Target: α5β1 integrin (Homo sapiens, UniProt P05556+P08648)
- Assay Method Text: Competitive solid-phase integrin binding assay (ELISA), fibronectin-α5β1
- Condition Set: purified integrin, n = 5 ± SEM, read-out: In vitro IC50 α5β1
pIC50: −log10 of the molar value.
Property Label: pIC50

Smiles: CC(C)[C@@H]1NC(=O)[C@@H](Cc2ccccc2)NC(=S)[C@H](CC(=O)O)NC(=O)CNC(=O)[C@H](CCCNC(=N)N)NC1=O
Target: α5β1 integrin (Homo sapiens, UniProt P05556+P08648)
Recorded Result: 7.21
--
Smiles: CC(C)[C@@H]1NC(=S)[C@@H](Cc2ccccc2)NC(=O)[C@H](CC(=O)O)NC(=O)CNC(=O)[C@H](CCCNC(=N)N)NC1=O
Target: α5β1 integrin (Homo sapiens, UniProt P05556+P08648)
Recorded Result: 8.89
--
Smiles: CC(C)[C@@H]1NC(=S)[C@H](Cc2ccccc2)NC(=O)[C@H](CC(=O)O)NC(=O)CNC(=O)[C@H](CCCNC(=N)N)NC1=O
Target: α5β1 integrin (Homo sapiens, UniProt P05556+P08648)
Recorded Result: 8.70
--
Smiles: CC(C)[C@H]1NC(=O)[C@H](Cc2ccccc2)NC(=O)[C@H](CC(=O)O)NC(=S)CNC(=O)[C@H](CCCNC(=N)N)NC1=O
Target: α5β1 integrin (Homo sapiens, UniProt P05556+P08648)
Recorded Result: 6.98

====

- Tested on: αvβ3, αvβ5 and α5β1 expressing U-87 MG glioblastoma cells
- Assay Method Text: Competitive cell-adhesion inhibition assay to vitronectin, U-87 MG
- Type: cell-based, human
- Condition Set: n = 5 ± SEM, read-out: In cellulo IC50 U-87 MG
pIC50: −log10 of the molar value.
Some compounds, each annotated with its measured pIC50.

Compound: CC(C)[C@@H]1NC(=S)[C@H](Cc2ccccc2)NC(=O)[C@H](CC(=O)O)NC(=O)CNC(=O)[C@H](CCCNC(=N)N)NC1=O
Target: αvβ3, αvβ5 and α5β1 expressing U-87 MG glioblastoma cells
Prefix Operator: =
pIC50: 8.80

Compound: CC(C)[C@@H]1NC(=O)[C@@H](Cc2ccccc2)NC(=S)[C@H](CC(=O)O)NC(=O)CNC(=O)[C@H](CCCNC(=N)N)NC1=O
Target: αvβ3, αvβ5 and α5β1 expressing U-87 MG glioblastoma cells
Prefix Operator: =
pIC50: 7.02

Compound: CC(C)[C@@H]1NC(=O)[C@H](Cc2ccccc2)NC(=O)[C@H](CC(=O)O)NC(=O)CNC(=O)[C@H](CCCNC(=N)N)NC1=O [Compound 12, cyclo(RGDFV)]
Target: αvβ3, αvβ5 and α5β1 expressing U-87 MG glioblastoma cells
Prefix Operator: <
pIC50: 4.00

====

- Target: αvβ5 integrin (Homo sapiens, UniProt P06756+P18084)
- Assay Method Text: Competitive solid-phase integrin binding assay (ELISA), vitronectin-αvβ5
- Condition Set: purified integrin, n = 5 ± SEM, read-out: In vitro IC50 αvβ5
Property Label: IC50

Smiles: CC(C)[C@@H]1NC(=O)[C@@H](Cc2ccccc2)NC(=O)[C@H](CC(=O)O)NC(=S)CNC(=O)[C@H](CCCNC(=N)N)NC1=O
Recorded Result: > 100 µM

Smiles: CC(C)[C@@H]1NC(=O)[C@H](Cc2ccccc2)NC(=S)[C@H](CC(=O)O)NC(=O)CNC(=O)[C@@H](CCCNC(=N)N)NC1=O
Recorded Result: > 10 µM

Smiles: CC(C)[C@@H]1NC(=O)[C@@H](Cc2ccccc2)NC(=O)[C@H](CC(=O)O)NC(=O)CNC(=S)[C@H](CCCNC(=N)N)NC1=O
Recorded Result: > 10 µM

Smiles: CC(C)[C@H]1NC(=O)[C@H](Cc2ccccc2)NC(=O)[C@H](CC(=O)O)NC(=S)CNC(=O)[C@H](CCCNC(=N)N)NC1=O
Recorded Result: > 10 µM
